The reported measurements were obtained from ChEMBL document CHEMBL2401718.

- Assay Remarks: Lipophilicity, log P of the compound by HPLC analysis
- Type: physicochemical
Reported Metric: logP

{"columns": ["Molecule", "logP"],
 "data": [
  ["O=C1/C(=C/c2ccc(Br)cc2)C(c2ccccc2)Oc2ccccc21 (configuration not stated)", 4.46],
  ["O=c1c(Cc2ccc([N+](=O)[O-])cc2)coc2ccccc12", 3.93],
  ["O=C1/C(=C\\c2ccncc2)C(c2ccccc2)Oc2ccccc21 (configuration not stated)", 2.85],
  ["O=C1/C(=C\\c2ccc(Br)cc2)C(c2ccccc2)Oc2ccccc21 (configuration not stated)", 4.71],
  ["O=C1/C(=C\\c2ccc(O)cc2)COc2ccccc21", 2.92],
  ["Cc1ccc(/C=C2\\C(=O)c3ccccc3OC2c2ccccc2)cc1 (configuration not stated)", 4.39],
  ["O=C1/C(=C/c2ccccc2)C(c2ccccc2)Oc2ccccc21 (configuration not stated)", 3.9],
  ["Cc1ccc(/C=C2/C(=O)c3ccccc3OC2c2ccccc2)cc1 (configuration not stated)", 4.36],
  ["O=c1c(Cc2ccc(F)cc2)coc2ccccc12", 4.02],
  ["O=C1/C(=C/c2ccncc2)C(c2ccccc2)Oc2ccccc21 (configuration not stated)", 2.98],
  ["O=c1c(Cc2ccc(O)cc2)coc2ccccc12", 3.33],
  ["O=C1/C(=C/c2ccccc2)C(c2ccccc2)Oc2ccc(O)cc21 (configuration not stated)", 3.5]
]}
